- System: Vero
- Experiment: Cytotoxicity against African green monkey Vero cells assessed as growth inhibition by CellTiter 96 non-radioactive cell proliferation colorimetric assay
- Assay type: cell-based
- Recorded Conditions: chlorocebus sabaeus, vero
Param label: returns YES when CC50 < 30 µM, returns NO otherwise, including exact equality.

Compound	Classification
COC(=O)c1c(Cc2ccccc2)nc(-c2ccccn2)nc1CN1CCN(C)CC1	NO
CC1(C)CC(=O)c2c(Cc3ccccc3)nc(-c3ccccn3)nc2C1	NO
CC1=C(I)C(c2ccc(F)cc2Cl)N=C(c2ccccn2)N1 (stereo unspecified)	YES
CC1=C(Br)C(c2ccc(F)cc2Cl)N=C(c2ccccn2)N1 (stereo unspecified)	YES
COC(=O)c1c(Cc2ccccc2)nc(-c2ccccn2)nc1CN1CCOCC1	NO

Hello, I'm reviewing records and need to know if CC50 of CC1=C(C(=O)NS(=O)(=O)N(C)C)C(c2ccc(F)cc2Cl)N=C(c2ccccn2)N1 (stereo unspecified) is below 30 µM. Could you check?
NO

Now consider COC(=O)C1=C(Cn2cc[n+](C)c2)NC(c2ccccn2)=NC1c1ccc(F)cc1Cl (stereo unspecified) and answer again.
NO

Now try COC(=O)C1=C(CN2CCN(C)CC2)NC(c2ccccn2)=NC1Cc1ccccc1 (stereo unspecified) .
NO
